These measurements were taken from patent US20080096907A1.

Measured pKi, listed per entry.
Biological target: TMPKmt (M. tuberculosis TMPK) (Mycobacterium tuberculosis, UniProt P9WKE1)
Sequence (P9WKE1 whole entry, looked up): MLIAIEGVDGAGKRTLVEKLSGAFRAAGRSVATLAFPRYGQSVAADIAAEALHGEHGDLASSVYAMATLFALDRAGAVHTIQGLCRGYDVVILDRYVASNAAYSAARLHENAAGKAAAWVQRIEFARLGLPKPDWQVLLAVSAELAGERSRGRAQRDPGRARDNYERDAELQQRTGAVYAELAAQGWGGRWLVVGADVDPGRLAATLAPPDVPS
Assay: biochemical
Type: biochemical
Conditions: pH 7.4; read-out: TMPKmt W1002 Ki
FYI, pKi means -log10 of a concentration in mol per litre.

Smiles text	pKi
Cc1cn(Cc2cccc(Cl)c2)c(=O)[nH]c1=O	4.36
Cc1cn(Cc2ccc(F)c(F)c2)c(=O)[nH]c1=O	4.17
Cc1cn(Cc2ccc(CCC(N)=O)cc2)c(=O)[nH]c1=O	3.96
Cc1cn(Cc2ccccc2)c(=O)[nH]c1=O	4.12
N#Cc1cn(Cc2ccccc2)c(=O)[nH]c1=O	3.01

Given the compound `N#Cc1cn(Cc2cccc(Cl)c2)c(=O)[nH]c1=O` , write its reported pKi.
3.09

Read the entry `Cc1cn(Cc2ccc(CCCCCC(=O)O)cc2)c(=O)[nH]c1=O` and write its reported pKi.
4.49

Please list pKi recorded for the compound `CCOC(=O)CCc1ccc(Cn2cc(C)c(=O)[nH]c2=O)cc1`
3.58

Provide pKi value for the following compound: `O=c1[nH]c(=O)n(Cc2ccccc2)cc1Br`
4.36

###

Each entry below lists one item and its recorded Ki value.
Target: TMPKmt (M. tuberculosis TMPK) (Mycobacterium tuberculosis, UniProt P9WKE1)
Test: biochemical
Assay type: biochemical
Details: pH 7.4; read-out: Ki
// units = µM; emit number, no label

As a guide, the following entries are already answered.
Compound	Ki, µM
Cc1cn(Cc2ccc(CCCCCC(N)=O)cc2)c(=O)[nH]c1=O [Compound 54]	33
Cc1cn(Cc2ccc(CSCC(=O)O)cc2)c(=O)[nH]c1=O [Compound 63]	15
Cc1cn(Cc2ccc(CCCCO)cc2)c(=O)[nH]c1=O [Compound 31]	63

Param request: Ki | system TMPKmt (M. tuberculosis TMPK) (Mycobacterium tuberculosis, UniProt P9WKE1) | item O=C(O)CCCc1ccc(Cn2cc(Cl)c(=O)[nH]c2=O)cc1 [Compound 39]
15

###

Target: TMPKmt (M. tuberculosis TMPK) (Mycobacterium tuberculosis)
Assay: biochemical
Type: biochemical
Quantity: pKi
The value called pKi is obtained by taking minus log10 of the concentration in mol/L.

Molecule	pKi
Cc1cn(Cc2ccc(CC(F)CC(=O)O)cc2)c(=O)[nH]c1=O (stereo not shown)	4.20
Cc1cn(Cc2ccc(CC(F)CC=O)cc2)c(=O)[nH]c1=O (stereo not shown)	4.59

Specify reported pKi for the molecule shown: `O=C(O)CCCCCc1ccc(Cn2cc(Cl)c(=O)[nH]c2=O)cc1`
4.31

Indicate its recorded pKi; the molecule in question is `NC(=O)CCCCCc1ccc(Cn2cc(Cl)c(=O)[nH]c2=O)cc1`
4.49

###

# Ki per entry
Target: TMPKmt (M. tuberculosis TMPK) (Mycobacterium tuberculosis)
Assay: biochemical
Type: biochemical
Conditions: pH 7.4; read-out: TMPKmt W1002 Ki
Number only, in µM; omit the unit.

Previously resolved entries follow.
Smiles text	Units label	Ki
Cc1cn(Cc2cccc(F)c2)c(=O)[nH]c1=O	µM	90
Cc1cn(Cc2ccc(Br)cc2)c(=O)[nH]c1=O	µM	38
Cc1cn(Cc2ccc(CCCC(=O)O)cc2)c(=O)[nH]c1=O	µM	16.5
Cc1cn(Cc2ccc(CCC(=O)O)cc2)c(=O)[nH]c1=O	µM	68
Cc1cn(Cc2ccc(C=CC(N)=O)cc2)c(=O)[nH]c1=O	µM	240
Cc1cn(Cc2ccc(Cl)cc2)c(=O)[nH]c1=O	µM	50

Tell us which Ki value is on record for `Cc1cn(Cc2ccc(F)cc2)c(=O)[nH]c1=O`
45
